This collection of values is drawn from patent US11401253B2.

- Test system: Streptococcus pyogenes
Please assign Condition not met whenever MIC is at or above 50 µg/mL, and Condition met whenever it is below.

For orientation, consider the following solved cases.
{"molecule": "C[C@@H]1CCCCCCCCCC[C@H](O)/C=C/C(=O)O1", "category": "Condition not met"}
{"molecule": "C[C@@H]1CCCCCCCCC[C@H](O)C(=O)C[C@@H](SC[C@@H](O)C(=O)O)C(=O)O1", "category": "Condition met"}
{"molecule": "C[C@H]1OC(=O)/C=C/[C@@H](O)[C@@H](O)CCCCCCCC[C@@H]1O", "category": "Condition not met"}
{"molecule": "C[C@@H]1CCCCCCCCC[C@H](OC(=O)CCC(=O)O)C(=O)C[C@@H](SC[C@@H](O)C(=O)O)C(=O)O1", "category": "Condition not met"}
{"molecule": "C[C@@H]1CCCCCCCCC[C@H](OC(=O)CCC(=O)O)C(=O)/C=C/C(=O)O1", "category": "Condition met"}
{"molecule": "C[C@@H]1CCCCCCCCC[C@H](OC(=O)CCC(=O)O)[C@H](O)/C=C/C(=O)O1", "category": "Condition not met"}

Problem: # TODO verify MIC < 50 µg/mL strictly for this molecule: "O=C(O)CCC(=O)O[C@H]1CCCCCCCCC[C@@H](CO)OC(=O)/C=C/[C@H]1O"
Solution: Condition not met

Problem: Threshold test, MIC < 50 µg/mL: "C[C@@H]1CCCCCCCCC[C@H](O)[C@H](O)/C=C/C(=O)O1"
Solution: Condition not met

* * *

- Test system: J774
- procedureSummary: Cytotoxicity (MTS), J774 cells
- Assay type: cell-based, murine
- measurementContext: Mus musculus, 72 hours exposure
testReadout: IC50 (µg/mL)
Give the value in µg/mL but do not write µg/mL after it.

Problem: I would be grateful if you could share the reported IC50 for "COC(=O)[C@H](O)CS[C@@H]1CC(=O)[C@@H](O)CCCCCCCCC[C@@H](C)OC1=O" .
Solution: 38

Problem: What does the data say about its IC50? Entry: "C[C@@H]1CCCCCCCCCC[C@H](O)/C=C/C(=O)O1"
Solution: 40.7

Problem: Which value of IC50 has been reported for CO[C@H]1/C=C/O[C@@]2(C)Oc3c(C)c(O)c4c(O)c(c(/C=N/N5CCN(C)CC5)c(O)c4c3C2=O)NC(=O)/C(C)=C\C=C\[C@H](C)[C@H](O)[C@@H](C)[C@@H](O)[C@@H](C)[C@H](OC(C)=O)[C@@H]1C [RMP - Rifampicin, Rifampicin, reference compound] in the records?
Solution: 95.8

Problem: Query: IC50; subject: "C[C@@H]1CCCCCCCCC[C@H](OC(=O)CCC(=O)O)C(=O)/C=C/C(=O)O1"
Solution: 37.2

Problem: Fill blank: measured IC50 of the compound "C[C@@H]1CCCCCCCCC[C@H](OC(=O)CCC(=O)O)C(=O)C[C@@H](SC[C@@H](O)C(=O)O)C(=O)O1" is ____.
Solution: 42.5

Problem: Please give the measured IC50 for this compound: "C[C@@H]1CCCCCCCCC[C@H](O)C(=O)C[C@@H](SC[C@@H](O)C(=O)O)C(=O)O1"
Solution: 16.8

Problem: Could you share which IC50 value was measured for "C[C@@H]1CCCCCCCCC[C@H](O)[C@H](O)/C=C/C(=O)O1" ?
Solution: 74.1

* * *

- testedTarget: MMP-3 (Homo sapiens)
- Construct: purchased BioMol
- Sequence (P08254 100-477): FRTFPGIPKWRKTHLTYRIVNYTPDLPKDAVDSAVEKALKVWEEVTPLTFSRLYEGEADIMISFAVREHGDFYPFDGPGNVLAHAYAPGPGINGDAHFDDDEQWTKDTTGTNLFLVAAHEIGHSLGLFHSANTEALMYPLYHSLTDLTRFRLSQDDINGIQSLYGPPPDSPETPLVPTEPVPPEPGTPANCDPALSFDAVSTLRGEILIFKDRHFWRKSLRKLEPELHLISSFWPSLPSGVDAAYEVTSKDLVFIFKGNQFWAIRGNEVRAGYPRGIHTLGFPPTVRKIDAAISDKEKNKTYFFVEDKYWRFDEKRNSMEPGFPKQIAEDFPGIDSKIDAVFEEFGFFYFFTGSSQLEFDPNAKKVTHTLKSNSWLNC
- procedureSummary: MMP-3 enzyme inhibition assay
- Assay type: biochemical
testReadout: MMP-3 inhibition

The following compounds have reported results that may help.
{"compound": "C[C@@H]1CCCCCCCCC[C@H](OC(=O)CCC(=O)O)C(=O)C[C@@H](SC[C@@H](O)C(=O)O)C(=O)O1", "MMP-3 inhibition": "weaker inhibitors"}
{"compound": "C[C@H]1OC(=O)/C=C/[C@@H](O)[C@@H](OC(=O)CCC(=O)O)CCCCCCCC[C@@H]1O", "MMP-3 inhibition": "weaker inhibitors"}
{"compound": "O=C(O)CCC(=O)O[C@H]1CCCCCCCCC[C@@H](CO)OC(=O)/C=C/[C@H]1O", "MMP-3 inhibition": "weaker inhibitors"}
{"compound": "C[C@@H]1CC(O)CCCCCCC[C@H](OC(=O)CCC(=O)O)C(=O)/C=C/C(=O)O1 (some centres unmarked)", "MMP-3 inhibition": "weaker inhibitors"}

# next compound below
Problem: Fill in the blank: the reported MMP-3 inhibition of "C[C@@H]1CCCCCCCCC[C@H](OC(=O)CCC(=O)O)[C@H](O)/C=C/C(=O)O1" is ____.
Solution: weaker inhibitors

* * *

- Tested on: non-replicating persistence Mycobacterium tuberculosis (NRP-TB)
- procedureSummary: Low oxygen recovery assay (LORA), non-replicating persistence Mtb
- Type: cell-based
- measurementContext: Mycobacterium tuberculosis; non-replicating persistence conditions; known antibiotics; read-out: MIC, LORA
# Lookup of reported MIC keyed by entry
// return numeric value only (unit: µM, not printed)

// known answers, use as guide
{"compound": "O=[N+]([O-])c1cn2c(n1)OC[C@@H](OCc1ccc(OC(F)(F)F)cc1)C2 [PA824, reference compound]", "testedTarget": "non-replicating persistence Mycobacterium tuberculosis (NRP-TB)", "testReadout": "MIC", "measureUnit": "µM", "recordedValue": 7}
{"compound": "CC(=O)NC[C@H]1CN(c2ccc(N3CCOCC3)c(F)c2)C(=O)O1 [LIZ - Linezolidum, Linezolidum, reference compound]", "testedTarget": "non-replicating persistence Mycobacterium tuberculosis (NRP-TB)", "testReadout": "MIC", "measureUnit": "µM", "recordedValue": 2}

Problem: Param readout= MIC; system= non-replicating persistence Mycobacterium tuberculosis (NRP-TB); entry= Cc1ncc([N+](=O)[O-])n1CCO [MET - Metronidazole, Metronidazole, reference compound] ; returns value.
Solution: 449

* * *

- System: Mycobacterium tuberculosis
- procedureSummary: microbe, parasite or virus in culture
- measurementContext: read-out: MIC, MABA
testReadout: MIC

Solved entries (count: 3):
{"compound": "CC(=O)NC[C@H]1CN(c2ccc(N3CCOCC3)c(F)c2)C(=O)O1 [LIZ - Linezolidum, Linezolidum, reference compound]", "testedTarget": "Mycobacterium tuberculosis", "MIC": "2 µM"}
{"compound": "C[C@@H]1CCCCCCCCC[C@H](O)[C@H](O)/C=C/C(=O)O1", "testedTarget": "Mycobacterium tuberculosis", "MIC": "> 100 µg/mL"}
{"compound": "C[C@@H]1CCCCCCCCC[C@H](O)C(=O)C[C@@H](SC[C@@H](O)C(=O)O)C(=O)O1", "testedTarget": "Mycobacterium tuberculosis", "MIC": "25 µg/mL"}

Problem: Query: MIC; subject: "C[C@@H]1CCCCCCCCC[C@H](OC(=O)CCC(=O)O)C(=O)C[C@@H](SC[C@@H](O)C(=O)O)C(=O)O1"
Solution: > 100 µg/mL

Problem: MIC for "C[C@@H]1CCCCCCCCC[C@H](OC(=O)CCC(=O)O)[C@H](O)/C=C/C(=O)O1" ?
Solution: > 100 µg/mL

Problem: // returns reported MIC for input O=[N+]([O-])c1cn2c(n1)OC[C@@H](OCc1ccc(OC(F)(F)F)cc1)C2 [PA824, reference compound]
Solution: 0.2 µM

* * *

MIC values, listed per item
- Tested on: Mycobacterium tuberculosis
- procedureSummary: microbe, parasite or virus in culture
- measurementContext: read-out: MIC, MABA

Here are 5 compounds together with their reported answers.
{"compound": "COc1nc2ccc(Br)cc2cc1[C@@H](c1ccccc1)[C@@](O)(CCN(C)C)c1cccc2ccccc12 [TMC207, reference compound]", "MIC": "> 0.1 µM"}
{"compound": "C[C@@H]1CCCCCCCCC[C@H](OC(=O)CCC(=O)O)C(=O)/C=C/C(=O)O1 [BPL 81]", "MIC": "47 µg/mL"}
{"compound": "COC(=O)[C@H](O)CS[C@@H]1CC(=O)[C@@H](O)CCCCCCCCC[C@@H](C)OC1=O [BPL 76-Me ester]", "MIC": "32 µg/mL"}
{"compound": "NNC(=O)c1ccncc1 [INH - Isoniazid, Isoniazid, reference compound]", "MIC": "0.5 µM"}
{"compound": "CO[C@H]1/C=C/O[C@@]2(C)Oc3c(C)c(O)c4c(O)c(c(/C=N/N5CCN(C)CC5)c(O)c4c3C2=O)NC(=O)/C(C)=C\\C=C\\[C@H](C)[C@H](O)[C@@H](C)[C@@H](O)[C@@H](C)[C@H](OC(C)=O)[C@@H]1C [RMP - Rifampicin, Rifampicin, reference compound]", "MIC": "> 0.1 µM"}

Please turn your attention to the following entry.
Problem: I would be grateful if you could share the reported MIC for C[C@@H]1CCCCCCCCCC[C@H](O)/C=C/C(=O)O1 [BPL 94] .
Solution: 39 µg/mL
